target: T1, human plasma kallikrein (human, UniProt P03952 20-390; P03952 391-638); test: Ki,app as an IgG, steady state enzyme kinetics, inhibition of human pKal
T1 construct: two disulfide linked chains; also called pKal; human pKal
T1 sequence (P03952 20-390, chain 1 of 2): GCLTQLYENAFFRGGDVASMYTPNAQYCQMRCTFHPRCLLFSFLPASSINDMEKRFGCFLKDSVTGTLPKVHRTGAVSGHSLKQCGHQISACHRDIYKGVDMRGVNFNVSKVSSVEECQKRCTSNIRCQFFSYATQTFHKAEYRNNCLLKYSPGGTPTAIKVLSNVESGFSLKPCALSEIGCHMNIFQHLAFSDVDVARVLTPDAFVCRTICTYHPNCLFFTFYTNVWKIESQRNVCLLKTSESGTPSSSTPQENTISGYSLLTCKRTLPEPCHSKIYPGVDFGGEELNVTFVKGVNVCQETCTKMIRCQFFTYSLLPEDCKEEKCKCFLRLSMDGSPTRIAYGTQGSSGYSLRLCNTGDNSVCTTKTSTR
T1 sequence (P03952 391-638, chain 2 of 2): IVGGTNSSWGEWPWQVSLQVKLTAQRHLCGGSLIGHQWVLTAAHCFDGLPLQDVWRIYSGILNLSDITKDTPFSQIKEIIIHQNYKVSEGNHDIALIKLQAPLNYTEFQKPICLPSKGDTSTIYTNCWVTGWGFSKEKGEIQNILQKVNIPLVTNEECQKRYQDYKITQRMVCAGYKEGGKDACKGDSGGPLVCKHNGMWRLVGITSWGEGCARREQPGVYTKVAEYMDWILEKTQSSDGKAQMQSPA
recorded-metric: Ki (nM)
Field format: number, assumed nM, no unit text.

What Ki value was documented for this binder, X69-C09 (IgG) (antibody, V domains shown, Full length human IgG1; printed HC runs into CH1; also called Parental) VH: EVQLLESGGGLVQPGGSLRLSCAASGFTFSAYSMIWVRQAPGKGLEWVSYIRPSGGRTTYADSVKGRFTISRDNSKNTLYLQMNSLRAEDTAVYYCARGGLLLWFRELKSNYFDYWGQGTLVTVSS VL: DIQMTQSPSSLSAFVGDRVTITCRASQPIDNYLNWYHQKPGKAPKLLIYAASRLQSGVPSRLSGSGFGTDFTLTISSLQPEDFGNYYCQQSYTVPYTFGGGTKVEIR ? 0.2

Consider the binder X67-C03 (IgG) (antibody, V domains shown, printed HC runs into CH1) VH: EVQLLESGGGLVQPGGSLRLSCAASGFTFSAYSMIWVRQAPGKGLEWVSYIRPSGGRTTYADSVKGRFTISRDNSKNTLYLQMNSLRAEDTAVYYCARGGLLLWMRELKSNYFDYWGQGTLVTVSS VL: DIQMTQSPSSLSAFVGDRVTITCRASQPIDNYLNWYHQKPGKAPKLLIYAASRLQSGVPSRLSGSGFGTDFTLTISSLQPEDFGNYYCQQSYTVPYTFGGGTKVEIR and give its measured Ki. 0.7
